Measured values drawn from patent US8569292B2 for this set.

biological target: CYP2C19 (Homo sapiens, UniProt P33261)
Sequence (P33261 whole entry): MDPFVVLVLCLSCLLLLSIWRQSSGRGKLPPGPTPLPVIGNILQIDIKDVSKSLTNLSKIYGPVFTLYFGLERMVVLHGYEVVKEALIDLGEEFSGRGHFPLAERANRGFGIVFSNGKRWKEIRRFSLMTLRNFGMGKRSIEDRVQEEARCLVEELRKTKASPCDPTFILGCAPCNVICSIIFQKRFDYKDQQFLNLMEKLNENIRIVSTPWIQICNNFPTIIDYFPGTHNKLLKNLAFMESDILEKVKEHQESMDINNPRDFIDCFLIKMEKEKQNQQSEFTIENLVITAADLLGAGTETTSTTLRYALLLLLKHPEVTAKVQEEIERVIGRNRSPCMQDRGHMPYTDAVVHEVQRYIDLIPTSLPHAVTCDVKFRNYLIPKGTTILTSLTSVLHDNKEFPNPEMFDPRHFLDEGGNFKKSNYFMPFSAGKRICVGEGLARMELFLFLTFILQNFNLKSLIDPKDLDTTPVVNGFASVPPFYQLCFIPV
pIC50: −log10 of the molar value.
# cutoff 5 applies to pIC50; >= gives label 1, < gives label 0

{"CHEMICAL STRUCTURE": "C[C@@H](c1ccc(-c2cscn2)cc1)N1CC[C@](CC(C)(C)O)(c2ccccc2)OC1=O", "CATEGORY": "label 1"}
{"CHEMICAL STRUCTURE": "Cc1ncc(-c2ccc([C@H](C)N3CC[C@](CC(C)(C)O)(c4ccccc4)OC3=O)cc2)cn1", "CATEGORY": "label 0"}
{"CHEMICAL STRUCTURE": "C[C@@H](c1ccc(-c2ccc(C#N)cn2)cc1)N1CC[C@](CC(C)(C)O)(c2ccc(F)cc2)OC1=O", "CATEGORY": "label 0"}
{"CHEMICAL STRUCTURE": "Cc1cc(-c2ccc([C@H](C)N3CC[C@](CC(C)(C)O)(c4ccccc4)OC3=O)cc2)cc(C)n1", "CATEGORY": "label 0"}
{"CHEMICAL STRUCTURE": "C[C@@H](c1ccc(-c2cnc(C(=O)NC3CC3)nc2)cc1)N1CC[C@](CC(C)(C)C#N)(c2ccccc2)OC1=O", "CATEGORY": "label 1"}
{"CHEMICAL STRUCTURE": "C[C@@H](c1ccc(-c2ncc(C(=O)N(C)C)s2)cc1)N1CC[C@](CC(C)(C)O)(c2ccccc2)OC1=O", "CATEGORY": "label 0"}
{"CHEMICAL STRUCTURE": "C[C@@H](c1ccc(-c2ccc(C(=O)NC(C)(C)C)cn2)cc1)N1CC[C@](CC(C)(C)C#N)(c2ccccc2)OC1=O", "CATEGORY": "label 1"}

----------
target: CYP2C9 (Homo sapiens); construct: purchased Invitrogen 2859; host or cells: insect cells infected with baculovirus (microsomes); test: Biological Test Example 7: CYP2C9 inhibition (naproxen O-demethylation); assay type: in vitro ADME
Sequence (P11712 whole entry): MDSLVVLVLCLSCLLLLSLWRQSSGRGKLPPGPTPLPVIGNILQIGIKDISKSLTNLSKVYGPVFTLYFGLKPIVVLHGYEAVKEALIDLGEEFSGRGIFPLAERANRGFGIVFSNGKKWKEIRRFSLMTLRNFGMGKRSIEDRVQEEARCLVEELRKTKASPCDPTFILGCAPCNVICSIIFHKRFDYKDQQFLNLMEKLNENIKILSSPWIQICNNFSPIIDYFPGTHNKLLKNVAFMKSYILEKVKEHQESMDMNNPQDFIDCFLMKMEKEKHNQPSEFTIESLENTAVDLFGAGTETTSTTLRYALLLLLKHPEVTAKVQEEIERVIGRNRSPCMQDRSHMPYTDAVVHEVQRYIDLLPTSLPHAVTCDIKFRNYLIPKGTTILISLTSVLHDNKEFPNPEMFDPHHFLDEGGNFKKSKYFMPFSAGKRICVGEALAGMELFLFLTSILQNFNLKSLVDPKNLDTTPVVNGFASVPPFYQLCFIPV
Entries annotated with measured IC50

{"COMPOUND": "C[C@@H](c1ccc(-c2ccc(C(=O)NC3CC3)nn2)cc1)N1CC[C@](CC(C)(C)C#N)(c2ccccc2)OC1=O [EXAMPLE 11]", "ASSAY TARGET": "CYP2C9 (Homo sapiens)", "CENSORING QUALIFIER": ">", "IC50 (µM)": 50}
{"COMPOUND": "C[C@@H](c1ccc(-c2cnc(C3CC3)nc2)cc1)N1CC[C@](CC(C)(C)O)(c2ccccc2)OC1=O [EXAMPLE 192]", "ASSAY TARGET": "CYP2C9 (Homo sapiens)", "CENSORING QUALIFIER": "=", "IC50 (µM)": 10.4}
{"COMPOUND": "C[C@@H](c1ccc(-c2cc([S+](C)[O-])ccn2)cc1)N1CC[C@](CC(C)(C)O)(c2ccccc2)OC1=O (some centres unmarked) [EXAMPLE 184]", "ASSAY TARGET": "CYP2C9 (Homo sapiens)", "CENSORING QUALIFIER": ">", "IC50 (µM)": 50}
{"COMPOUND": "C[C@@H](c1ccc(-c2ccc(S(C)(=O)=O)nc2)cc1)N1CC[C@](CC(C)(C)O)(c2ccccc2)OC1=O [EXAMPLE 183]", "ASSAY TARGET": "CYP2C9 (Homo sapiens)", "CENSORING QUALIFIER": "=", "IC50 (µM)": 45.7}
{"COMPOUND": "C[C@@H](c1ccc(-c2ncc(C(=O)N(C)C)s2)cc1)N1CC[C@](CC(C)(C)O)(c2ccccc2)OC1=O [EXAMPLE 158]", "ASSAY TARGET": "CYP2C9 (Homo sapiens)", "CENSORING QUALIFIER": ">", "IC50 (µM)": 50}
{"COMPOUND": "C[C@@H](c1ccc(-c2cnn(C)c2)cc1)N1CC[C@](CC(C)(C)O)(c2ccccc2)OC1=O [EXAMPLE 178]", "ASSAY TARGET": "CYP2C9 (Homo sapiens)", "CENSORING QUALIFIER": "=", "IC50 (µM)": 21.3}
{"COMPOUND": "C[C@@H](c1ccc(-c2cccc([S+](C)[O-])n2)cc1)N1CC[C@](CC(C)(C)O)(c2ccccc2)OC1=O (some centres unmarked) [EXAMPLE 191]", "ASSAY TARGET": "CYP2C9 (Homo sapiens)", "CENSORING QUALIFIER": ">", "IC50 (µM)": 50}
{"COMPOUND": "C[C@@H](c1ccc(-c2nc(C(=O)NC3CC3)cs2)cc1)N1CC[C@](CC(C)(C)O)(c2ccccc2)OC1=O [EXAMPLE 19]", "ASSAY TARGET": "CYP2C9 (Homo sapiens)", "CENSORING QUALIFIER": "=", "IC50 (µM)": 31.7}
{"COMPOUND": "Cc1ccc(-c2ccc([C@H](C)N3CC[C@](CC(C)(C)O)(c4ccc(F)cc4)OC3=O)cc2)nn1 [EXAMPLE 155]", "ASSAY TARGET": "CYP2C9 (Homo sapiens)", "CENSORING QUALIFIER": "=", "IC50 (µM)": 38.9}
{"COMPOUND": "C[C@@H](c1ccc(-c2ccc(C(=O)NC(C)(C)C)cn2)cc1)N1CC[C@](CC(C)(C)C#N)(c2ccccc2)OC1=O [EXAMPLE 3]", "ASSAY TARGET": "CYP2C9 (Homo sapiens)", "CENSORING QUALIFIER": "=", "IC50 (µM)": 2.5}
{"COMPOUND": "Cc1cc(-c2ccc([C@H](C)N3CC[C@](CC(C)(C)O)(c4ccccc4)OC3=O)cc2)cc(C)n1 [EXAMPLE 139]", "ASSAY TARGET": "CYP2C9 (Homo sapiens)", "CENSORING QUALIFIER": "=", "IC50 (µM)": 21.4}
{"COMPOUND": "C[C@@H](c1ccc(-c2ccnc(S(C)(=O)=O)c2)cc1)N1CC[C@](CC(C)(C)O)(c2ccccc2)OC1=O [EXAMPLE 187]", "ASSAY TARGET": "CYP2C9 (Homo sapiens)", "CENSORING QUALIFIER": "=", "IC50 (µM)": 25.9}
{"COMPOUND": "Cc1cc(-c2ccc([C@H](C)N3CC[C@](CC(C)(C)O)(c4ccccc4)OC3=O)cc2)ccn1 [EXAMPLE 97]", "ASSAY TARGET": "CYP2C9 (Homo sapiens)", "CENSORING QUALIFIER": "=", "IC50 (µM)": 11.2}
{"COMPOUND": "C[C@@H](c1ccc(-c2ncc(F)cn2)cc1)N1CC[C@](CC(C)(C)O)(c2ccccc2)OC1=O [EXAMPLE 13]", "ASSAY TARGET": "CYP2C9 (Homo sapiens)", "CENSORING QUALIFIER": ">", "IC50 (µM)": 10}
{"COMPOUND": "C[C@@H](c1ccc(-c2ccc(C(=O)NC(C)(C)C)nn2)cc1)N1CC[C@](CC(C)(C)C#N)(c2ccccc2)OC1=O [EXAMPLE 9]", "ASSAY TARGET": "CYP2C9 (Homo sapiens)", "CENSORING QUALIFIER": ">", "IC50 (µM)": 50}
{"COMPOUND": "COc1ccc(-c2ccc([C@H](C)N3CC[C@](CC(C)(C)O)(c4ccccc4)OC3=O)cc2)cn1 [EXAMPLE 93]", "ASSAY TARGET": "CYP2C9 (Homo sapiens)", "CENSORING QUALIFIER": "=", "IC50 (µM)": 8}
{"COMPOUND": "C[C@@H](c1ccc(-c2ccc(C#N)cn2)cc1)N1CC[C@](CCCO)(c2ccc(F)cc2)OC1=O [EXAMPLE 101]", "ASSAY TARGET": "CYP2C9 (Homo sapiens)", "CENSORING QUALIFIER": "=", "IC50 (µM)": 9.9}
